This collection of values is drawn from patent US20190389955A1.

Molecular target: T1, human FLT3/FLK2 receptor protein (human, UniProt P36888 27-993)
T1 construct: whole, on cells; Cell-surface target in the flow cytometry experiments (REH cells and SP2/0-Hu-FLT3 cells); also called CD135; Hu-FLT3
T1 sequence (looked up): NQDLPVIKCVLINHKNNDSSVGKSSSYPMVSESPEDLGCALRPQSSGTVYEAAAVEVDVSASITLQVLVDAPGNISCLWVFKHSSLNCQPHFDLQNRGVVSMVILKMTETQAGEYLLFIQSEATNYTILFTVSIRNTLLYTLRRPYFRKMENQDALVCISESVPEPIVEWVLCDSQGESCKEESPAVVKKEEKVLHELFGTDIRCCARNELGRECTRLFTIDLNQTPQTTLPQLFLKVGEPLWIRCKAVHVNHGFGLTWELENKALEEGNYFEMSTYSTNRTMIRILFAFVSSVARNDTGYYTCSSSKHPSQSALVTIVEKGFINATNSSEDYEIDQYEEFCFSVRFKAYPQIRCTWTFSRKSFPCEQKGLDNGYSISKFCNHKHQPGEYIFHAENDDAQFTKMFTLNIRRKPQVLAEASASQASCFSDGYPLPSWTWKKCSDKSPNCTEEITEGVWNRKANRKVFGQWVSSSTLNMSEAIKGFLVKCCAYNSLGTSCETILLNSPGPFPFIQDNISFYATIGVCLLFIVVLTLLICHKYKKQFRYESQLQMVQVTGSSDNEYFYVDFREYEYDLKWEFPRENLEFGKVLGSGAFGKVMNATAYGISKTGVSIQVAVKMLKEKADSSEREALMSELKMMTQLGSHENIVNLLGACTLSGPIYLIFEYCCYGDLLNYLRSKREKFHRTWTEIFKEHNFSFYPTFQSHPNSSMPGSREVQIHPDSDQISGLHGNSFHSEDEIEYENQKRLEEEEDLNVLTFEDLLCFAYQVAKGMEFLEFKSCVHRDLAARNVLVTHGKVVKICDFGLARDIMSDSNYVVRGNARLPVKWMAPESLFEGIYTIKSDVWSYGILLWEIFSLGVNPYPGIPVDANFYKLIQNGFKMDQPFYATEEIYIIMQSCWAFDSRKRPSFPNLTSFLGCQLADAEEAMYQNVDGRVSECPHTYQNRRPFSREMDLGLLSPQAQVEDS
Assay: flow cytometry, hybridoma supernatant on REH cells; same table: unstained 1292, secondary Ab alone 6905 (0.78%), isotype 13307 (12%)
metric: % POSITIVE CELLS (%)
The reply should be a number in %, with the unit left off.

Need % POSITIVE CELLS of MHC1696-2-8IA (antibody, V domains shown, Mouse hybridoma monoclonal antibody; also called A281A) VH: EIQLQQSGPELVKPGASVKVSCKASGYSFIDYNMYWVKQSHGKSLEWIGYINPYNGGTSNNQKFKDKATLTVDKSSSTAFMHLNSLTSEDSAVYYCARGTTGDYWGQGTTLTVSS VL: DTVLTQSPATLSVTPGDSVSLSCRASQSISNNLHWYQQKSHESPRLLIKYGFQSISGIPSRFSGSGSGTDFTLRINSVETEDFGMYFCQQTNSWPLTFGAGTKLELK , thanks.
30

Also check MHC1692-1-23DA (antibody, V domains shown, Mouse hybridoma monoclonal antibody (detected with anti-mouse IgG); also called Ab1-23DA) VH: QVTLKESGPGILQPSQTLSLTCSFSGFSLSTSTMGVGWIRQPSGKGLEWLLHILWNDSKYYNPALKSRLTISKDTYNKQVFLKIANVDTADTATYYCARIVYYSTYVGYFDVWGAGTTVTVSS VL: DIQMTQSPSSLSASLGERVSLTCRASQEISGYLSWLQQKPDGTIKRLIYAASTLHSGVPKRFSGSRSGSDYSLTISRLESEDVADYYCLQYASYPFTFGSGTKLEIR
49

Also check MHC1694-1-18BA (antibody, V domains shown, Mouse hybridoma monoclonal antibody; also called Ab1-18New) VH: QVTLKESGPGILQPSQTLSLTCSFSGFSLSTSTMGVGWIRQPSGKGLEWLLHILWNDSKYYNPALKSRLTISKDTYNKQVFLKIANVDTADTATYYCARIVYYSTYVGYFDVWGAGTTVTVSS VL: DIQMTQSPSSLSASLGERVSLTCRASQEISGYLSWLQQKPDGTIKRLIYAASTLHSGVPKRFSGSRSGSDYSLTISRLESEDVADYYCLQYASYPFTFGSGTKLEIR
58

Also check MHC1695-3-30A (antibody, V domains shown, Mouse hybridoma monoclonal antibody) VH: QVTLKESGPGILQPSQTLSLTCSFSGFSLSTSHMGVGWIRQPSGKGLEWLLHILWNDSVYYNPALKSRLTISKDTYNKQVFLKIANVDTADTATYYCARIVYYGISYVGYFDVWGAGTTVTVSS VL: DIQMTQSPSSLSASLGERVSLTCRASQEISGYLSWLQQKPDGTIKRLIYAASTLNSGVPRRFSGSRSGSDYSLTISSLESEDFADYYCLQYASYPFTFGSGTKLEIK
48
